molecular target: recombinant sEH (soluble epoxide hydrolase, EPHX2) (Homo sapiens (Human), UniProt P34913); test: biochemical fluorometric sEH inhibition assay with Phome substrate; details: recombinant sEH purified from Sf9 insect cells, 2 nM sEH, 5 μM Phome, 60 minutes at 30° C.
Sequence (P34913 whole entry): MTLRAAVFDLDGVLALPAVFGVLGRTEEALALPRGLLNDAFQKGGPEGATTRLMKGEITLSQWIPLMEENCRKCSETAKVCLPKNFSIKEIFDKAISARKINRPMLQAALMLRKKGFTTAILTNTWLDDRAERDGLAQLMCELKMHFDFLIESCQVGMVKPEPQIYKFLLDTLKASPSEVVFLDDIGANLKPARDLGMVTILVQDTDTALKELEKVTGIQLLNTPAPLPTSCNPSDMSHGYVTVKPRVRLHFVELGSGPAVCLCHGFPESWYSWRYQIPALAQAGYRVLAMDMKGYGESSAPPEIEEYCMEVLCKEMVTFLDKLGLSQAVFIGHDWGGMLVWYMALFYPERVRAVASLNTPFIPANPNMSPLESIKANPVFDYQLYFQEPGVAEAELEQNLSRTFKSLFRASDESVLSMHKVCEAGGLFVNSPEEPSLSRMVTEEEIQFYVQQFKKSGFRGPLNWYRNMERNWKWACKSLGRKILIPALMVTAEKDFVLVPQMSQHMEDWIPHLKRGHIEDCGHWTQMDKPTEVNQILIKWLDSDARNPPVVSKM
readout type: IC50 (nM)

{"columns": ["molecule", "IC50 / nM"],
 "data": [
  ["Cc1cc(C(=O)NCc2ccccc2OC(F)(F)F)sc1CN1CCN(C(=O)c2c(C)cc(=O)oc2C)CC1", 1.87],
  ["COc1ccc(CNC(=O)c2ccc(CN3CCn4cnnc4C3)s2)c(OC(F)(F)F)c1", 2.33],
  ["Cc1cc(=O)oc(C)c1C(=O)N1CCN(Cc2ccc(C(=O)NCc3ccccc3OC(F)F)s2)CC1", 1.87],
  ["COCc1cc(O)nc(N2CCN(Cc3ccc(C(=O)NCc4ccccc4OC(F)(F)F)s3)CC2)n1", 2.04],
  ["O=C(NCc1ccccc1OC(F)(F)F)c1ccc(CN2CCN(C(=O)C3(O)CC3)CC2)s1", 0.929]
]}

I = CC(C)(O)C(=O)N1CCN(Cc2ccc(C(=O)NCc3ccccc3OC(F)(F)F)s2)CC1
II = COc1ccc(CNC(=O)c2ccc(CN3CCN(CC(F)(F)F)C(=O)C3)s2)c(OC(F)(F)F)c1
**Q:** Returns: the argument ( I or II ) having the larger IC50. Answer format: the label of the selected item.
**A:** I
(I: 1.69 nM, II: 1.01 nM)

Source listed as patent US9776991B2.
